ASSAY COMMENT: HepG2 cytotoxicity, primary screen, cytotoxicity control for P. falciparum antimalarial project, cell-based, ATP luminescence (AID 2303);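 also: 0% = DMSO wells and 100% = digitonin-killed cells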
COND: HepG2 viability, 24-48 h, at 10 µM, stronger effect = higher value
inhibition for assorted compounds
The reply should be a number in %, with the unit left off.

The following compounds have reported results that may help.
CC(=O)Nc1ccc(CN2CCC(NC(=O)c3ccc(-c4ccc(N(C)C)cc4)s3)CC2)cc1 ... 20
CN1CCc2cc(CN3C[C@]4(C)C[C@H]3CC(C)(C)C4)c(O)cc2C(c2ccccc2)C1 (stereo partly drawn) ... -4

Form field: reported inhibition of CC(C)(C)c1nn(-c2ccc(Cl)cc2)c2[nH]c(=O)c(CNC3CCCC3)cc12 -2

====

ASSAY COMMENT: HepG2 cytotoxicity, primary screen, cytotoxicity control for P. falciparum antimalarial project, cell-based, ATP luminescence (AID 2303);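 also: 0% = DMSO wells and 100% = digitonin-killed cells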
COND: HepG2 viability, 24-48 h, at 10 µM
The source made the active and inactive calls.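 The calls were made as follows: active = inhibition above 50%; inactive = the rest.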
Log the outcome using a class from yes (1) = active, no (0) = inactive

Below, 5 molecules whose answers are already recorded.
Nc1ncc(-c2ccccc2)cc1/C=C/c1cccnc1 ... no (0)
O=c1cc(NCCCNCc2cccc(OC(F)(F)C(F)F)c2)[nH]c2ccccc12 ... no (0)
Cc1cc(N(C)C)nc(Nc2ccc(NC(=O)CCc3ccccc3)cc2)n1 ... no (0)
c1ccc(-c2ccc3c(Nc4ccc5[nH]ccc5c4)ccnc3c2)nc1 ... no (0)
O=C(/C=C/c1ccc(Cl)cc1)NCCCCCN1CCCN(C(=O)Nc2ccc(F)c(Cl)c2)CC1 ... no (0)

What did this assay record as the result for CCc1cn2c3c(cc(C(=O)N[C@@H](Cc4ccccc4)[C@H](O)CNCc4ccccc4)cc13)N(C)S(=O)(=O)CC2 ? no (0)

What did this assay record as the result for COc1cc(CCOc2c(C)nc(N)nc2N)cc(OC)c1OC ? yes (1)

What did this assay record as the result for O=C(/C=C/c1ccc2ccccc2c1)NCC1(c2ccc(-c3ccccc3)cc2)CCOCC1 ? no (0)

What did this assay record as the result for Cc1ccc(NC(=O)c2ccc3ncccc3c2)cc1OC1CCN(CCC(C)C)CC1 ? no (0)

====

ASSAY COMMENT: antimalarial activity against Dd2 strain (AID 2302);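 also: 0% = DMSO untreated growth and 100% = chloroquine plus artemisinin killed control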
COND: P. falciparum Dd2 in RBCs, LDH growth readout, 72 h; at 2 µM
Active and inactive are the calls of the source.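 The calls were made as follows: active = growth inhibition above 50% at the single 2 µM test dose, taken to imply half-maximal potency below 2 µM; inactive = the rest.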
Log the outcome using a class from active, inactive

Below, 3 compounds whose answers are already recorded.
NC1CCN(Cc2cccc(-c3cccc(-c4nc5ccccc5[nH]4)c3)c2)C1 (stereo not given) ... inactive
COc1cc(CNC[C@@H](O)[C@H](Cc2ccccc2)NC(=O)c2cc(OC(C)C)cc(N3CCCCS3(=O)=O)c2)cc(OC)c1 ... active
CCCNC(=O)C1Cc2c([nH]c3ccc(Br)cc23)C2(CCN(CCc3ccccc3)CC2)N1 (stereo not given) ... inactive

What did this assay record as the result for COc1ccc(-c2ccc(NC(=O)c3ccc(Cl)cc3)cc2)cc1CN(C)CCO ? inactive

What did this assay record as the result for CC(CN1CCN(C)CC1)C(=O)Nc1ccc(-c2cccc(-c3nc4ccccc4[nH]3)c2)cc1 (stereo not given) ? active

What did this assay record as the result for CS(=O)(=O)CCN(CCS(C)(=O)=O)Cc1ccc(-c2ccc3ncnc(Nc4ccc(OCc5cccc(F)c5)c(Cl)c4)c3c2)o1 ? inactive

What did this assay record as the result for Cc1ccc(Nc2nccc(NCC(O)c3cccc(F)c3)n2)cc1 (stereo not given) ? inactive

What did this assay record as the result for Cc1cccc2[nH]c(-c3ccc(-c4ccc(NC(=O)NCc5cccc(F)c5)cc4)s3)nc12 ? inactive

What did this assay record as the result for C=C(C)COc1ccc(-c2n[nH]c(C(F)(F)F)c2-c2ccccc2OC)c(O)c1 ? active

What did this assay record as the result for COc1ccc(CNCCc2cccs2)cc1-c1ccc(OC)c(S(=O)(=O)NCCN2CCCC2)c1 ? inactive

What did this assay record as the result for COc1cc(C)nc2ccc(NC(=O)Nc3cccc4ccccc34)cc12 ? inactive

What did this assay record as the result for O=C1COC2(CN1C1CCN(Cc3ccc(O)c(Cl)c3)C1)c1ccccc1-c1ccccc12 (stereo not given) ? active

What did this assay record as the result for CCN(CCCN1CCCCC1)c1cc(C)nc(Nc2ccc(C)c(C)c2)n1 ? active

What did this assay record as the result for Cc1cnc(Nc2cccnc2)nc1Nc1ccccc1C(=O)NC(C)C ? inactive

What did this assay record as the result for Cc1cc(N[C@@H](Cc2ccccc2)C(=O)NCc2cccs2)nc(Nc2ccccc2)n1 ? inactive

What did this assay record as the result for Cc1cc(NC(=O)c2ccc(-c3ccccc3)cc2)no1 ? active

What did this assay record as the result for C=C(NC(=O)c1cc(C)cc(C)c1)C(=O)OC ? inactive

====

TESTED SYSTEM: Calcium-dependent protein kinase 1 (Plasmodium falciparum (isolate 3D7))
ASSAY COMMENT: PfCDPK1 kinase inhibitors, biochemical, TCAMS library (AID 1159585);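 also: inhibitors leave more ATP so luminescence rises with inhibition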
COND: recombinant PfCDPK1, Kinase-Glo ATP depletion luminescence
Measured potencies and affinities stand elsewhere. Activity calls are given as the source filed them. Cut-off not given; nearly all actives show IC50 up to about 0.98 µM.
PROPERTY LABEL: outcome

OC(CNc1cccc(Cl)c1)Cn1c2ccc(Cl)cc2c2cc(Cl)ccc21 (stereo not drawn) ... inactive
N#Cc1cccc(CN2CCCN(c3ccc(NC(=O)c4cccs4)cc3)CC2)c1 ... inactive
CC(=O)Nc1ccc(CN2CCC(NC(=O)c3cc(-c4ccc(N(C)C)cc4)cs3)C2)cc1 (stereo not drawn) ... inactive
COc1ccc(Nc2nccc(N3CCC(NC(=O)C(C)c4ccc(Cl)cc4)C3)n2)cc1 (stereo not drawn) ... inactive
CC(C)CC(NC(=O)c1cccc(OCCN2CCOCC2)c1)C(=O)NC(/C=N/NC(=O)c1ccccc1)CCc1ccccc1 (stereo not drawn) ... inactive
CC(C)(C)c1ccc(NC(=O)c2ccc(CN3CCCN(Cc4cccc(F)c4)CC3)cc2)cc1 ... inactive
O=C(Oc1ccc(C2CNCCc3c2cc(OC(=O)c2ccc(O)cc2)c(OC(=O)c2ccc(O)cc2)c3Cl)cc1)c1ccc(O)cc1 (stereo not drawn) ... inactive
O=C(Nc1ccc(-c2nc3ccccc3[nH]2)cc1)c1cccc([N+](=O)[O-])c1 ... inactive
CCOc1ccc(C=CC(=O)Nc2ccc3nc(N4CCN(C)CC4)cc(C)c3c2)cc1OC ... inactive
CCN(CCNC(=O)Cn1c(C)cc2cc([N+](=O)[O-])ccc21)c1cccc(C)c1 ... inactive

Form field: reported outcome of Cc1ccc(S(=O)(=O)/N=C(\N)NC(N)=O)cc1 inactive

Form field: reported outcome of COc1ccc(Cl)cc1N1CCN(CCCNC(=O)c2ccc(-c3nc4cc(Cl)c(C)cc4[nH]3)c(F)c2)CC1 inactive

Form field: reported outcome of Oc1ccc(CCNc2nc(NCCCOc3cccc(-c4ccccc4)c3)nc(N3CCNCC3)n2)cc1 inactive

====

ASSAY COMMENT: HepG2 cytotoxicity, primary screen, cytotoxicity control for P. falciparum antimalarial project, cell-based, ATP luminescence (AID 2303);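 also: 0% = DMSO wells and 100% = digitonin-killed cells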
COND: HepG2 viability, 24-48 h, at 10 µM, stronger effect = higher value
inhibition for assorted molecules
The reply should be a number in %, with the unit left off.

Cn1nc(C(F)(F)F)c(-c2ccc(F)cc2)c1NC(=O)Nc1ccc(F)cc1 ... 5
c1ccc2c(c1)CN(Cc1ccsc1)CC1(CCN(Cc3c[nH]c4cnccc34)CC1)O2 ... 38
CCCCCCCC1CC(CC(=O)Nc2ccnc3ccc(OC)cc23)CN1 (configuration not stated) ... 22
CN(C)CCOc1cc(NC(=O)Nc2cccc3c(-c4ccncc4)cccc23)ccc1I ... 20
CCCCCCNC(=O)C1Cc2c([nH]c3ccc(Br)cc23)C2(CCN(Cc3ccccc3)CC2)N1 (configuration not stated) ... 100
CC(C)NCc1cccc(-c2ccc(NS(=O)(=O)c3cccc4cccnc34)cc2)c1 ... 21

Form field: reported inhibition of Cc1csc(-c2nc(NCc3cccnc3)ncc2-c2ccsc2)n1 -5

Form field: reported inhibition of CC(=O)Nc1ccc(CN2CCC(CNC(=O)c3cc(-c4cccc(Cl)c4)cs3)C2)cc1 (configuration not stated) 24

Form field: reported inhibition of c1cc(-c2ccc(CNCCc3ccncc3)cc2)cc(-c2nc3ccccc3[nH]2)c1 41

====

ASSAY COMMENT: inhibition of 3D7 malaria parasite growth – strain 3D7 (AID 2306);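 also: 0% = DMSO wells and 100% = chloroquine plus artemisinin control wells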
COND: P. falciparum 3D7 erythrocytic growth, LDH absorbance, 72 h; at 2 µM; stronger effect = higher value
PROPERTY LABEL: growth inhibition (%)
The reply should be a number in %, with the unit left off.

COc1ccc(CNCCCCCCNCc2ccc(OC)c3ccccc23)c2ccccc12 ... 102
Cc1nc(/N=C(\N)NC(=O)NC2CCCCC2)nc2ccccc12 ... 95
COc1ccc2nccc(N3CCC(CCNCc4ccc5c(n4)NC(=O)CS5)CC3)c2n1 ... 102
Cc1ccc(CNC(=O)c2cc3c(=O)n4cccc(C)c4nc3n(CCN3CCOCC3)c2=N)cc1 ... 97

Form field: reported growth inhibition of Cc1cc(C(F)(F)F)cc(-n2ncc(-c3ccc(C(=O)NCCNCc4ccccc4)cc3)c2N)n1 91

Form field: reported growth inhibition of Oc1ccc2[nH]c(-c3cccs3)nc2c1CN1CCC(N2CCCC2)CC1 100

Form field: reported growth inhibition of COc1ccc(NC(=O)Nc2nc(-c3ccc(Cl)c(C)c3)cs2)cc1N1CCN(C)CC1 99

Form field: reported growth inhibition of COc1ccccc1C1CC(c2ccc(Br)cc2)=NN1C(=O)c1ccccc1 (centres undefined) 85

Form field: reported growth inhibition of COc1cccc(NC(=O)c2cc(Br)cc(N3CCN(c4ccncc4)CC3)c2)c1 100
